Ref: ChEMBL document CHEMBL4382257

- PROTOCOL NOTES: physchem
- PARTICULARS: buffer, pH 7.4, logD
READOUT KIND: chromatographic logD
Reply with the value as a number alone.

Known results for compounds:
COMPOUND | chromatographic logD
COc1ccc(C(=O)CN2C(=O)NC(C)(c3ccc(OC(F)F)cc3)C2=O)cc1F (stereo not given) | 5.03
Cc1ccc(C2(C)NC(=O)N(CC(=O)c3ccc(F)cc3F)C2=O)cc1 (stereo not given) | 5.41
Cc1ccc(C(=O)CN2C(=O)NC(C)(c3ccc(OC(F)F)cc3)C2=O)s1 (stereo not given) | 5.06
CC1(c2ccc(C#N)cc2)NC(=O)N(CC2(c3ccc(F)cc3F)COC2)C1=O (stereo not given) | 4.21
COc1ccc(F)cc1C(=O)CN1C(=O)NC(C)(c2ccc(OC(F)F)cc2)C1=O (stereo not given) | 5.42
CC1(c2ccc(Br)cc2)NC(=O)N(CC(=O)c2ccc(F)cc2F)C1=O (stereo not given) | 5.68

# evaluate next
**Q:** Quick one: give measured chromatographic logD for CC1(c2ccc(C#N)cc2)NC(=O)N(CC(=O)C2CCCCC2)C1=O (stereo not given)
**A:** 5.07
